compounds and their reported Relative Potency, Pseudopterosin A
test system: phorbol 12-myristate 13-acetate (PMA) induced ear edema; assay: Mouse ear anti-inflammatory assay; format: in vivo; settings: potency estimate relative to Pseudopterosin A (historical ED50 15 μg/ear)
Record the value in %, omitting the unit from your answer.

Look at this compound and give its reported Relative Potency, Pseudopterosin A. CC(=O)OC1C(Oc2c(C)c3c4c(c2O)[C@@H](C)CC[C@@H]4[C@@H](C)CC3C=C(C)C)OCC(O)C1O (stereo partly shown)
118

Okay, and CC(=O)OC1C(O)C(C)OC(Oc2c(C)cc3c(c2O)[C@@H](C)CC[C@@H]3[C@@H](C)CCC=C(C)C)C1O (stereo partly shown) ?
103

Okay, and CC(=O)OC1C(C)OC(Oc2c(C)cc3c(c2O)[C@@H](C)CC[C@@H]3[C@@H](C)CCC=C(C)C)C(O)C1O (stereo partly shown) ?
148

Okay, and CC(=O)OC1COC(Oc2c(C)c3c4c(c2O)[C@@H](C)CC[C@@H]4[C@@H](C)CC3C=C(C)C)C(O)C1O (stereo partly shown) ?
123
